I'd be grateful if you could share measured enrichment ratio for these entries.
B1: PhoQ; a variant is named by its letters at X, in order, P23837 (parent)
chain: MKKLLRLFFPLSLRVRFLLATAAVVLVLSLAYGMVALIGYSVSFDKTTFRLLRGESNLFYTLAKWENNKLHVELPENIDKQSPTMTLIYDENGQLLWAQRDVPWLMKMIQPDWLKSNGFHEIEADVNDTSLLLSGDHSIQQQLQEVREDDDDAEMTHSVAVNVYPATSRMPKLTIVVVDTIPVELKSSYMVWSWFIYVLSANLLLVIPLLWVAAWWSLRPIEALAKEVRELEEHNRELLNPATTRELTSLVRNLNRLLKSERERYDKYRTTLTDLTHSLKTPLXXLQXXLRSLRSEKMSVSDAEPVMLEQISRISQQIGYYLHRASMRGGTLLSRELHPVAPLLDNLTSALNKVYQRKGVNISLDISPEISFVGEQNDFVEVMGNVLDNACKYCLEFVEISARQTDEHLYIVVEDDGPGIPLSKREVIFDRGQRVDTLRPGQGVGLAVAREITEQYEGKIVAGESMLGGARMEVIFGRQHSAPKDE

Variants of: B1
ASSAY_TEXT: enrichment ratio after two sorts for PhoP signalling (ratio (wild type AVST 3.29)); higher = more functional
REPORTED_CONDITIONS: with PhoP (E. coli)
In all, about 140,000 sequences were measured (“enrichment ratio after two sorts for PhoP signalling”: median about 0, highest 2% from about 11 on). The full list was thinned out, with the highest values kept by preference.

## Task Specify measured enrichment ratio for YEGM .
## Result ≤ 0.25

## Task Specify measured enrichment ratio for SPIG .
## Result ≤ 0.25

## Task Specify measured enrichment ratio for TCAG .
## Result 12.5

## Task Specify measured enrichment ratio for TESQ .
## Result 22.8

## Task Specify measured enrichment ratio for SIYY .
## Result ≤ 0.25

## Task Specify measured enrichment ratio for PINH .
## Result ≤ 0.25

## Task Specify measured enrichment ratio for YEMM .
## Result 16.1

## Task Specify measured enrichment ratio for WICR .
## Result ≤ 0.25
